# Experimental System: NfnL (isolated large subunit of NADH-dependent ferredoxin-NADP+ oxidoreductase I) (Pyrococcus furiosus)
# Sequence (Q8U195 whole entry): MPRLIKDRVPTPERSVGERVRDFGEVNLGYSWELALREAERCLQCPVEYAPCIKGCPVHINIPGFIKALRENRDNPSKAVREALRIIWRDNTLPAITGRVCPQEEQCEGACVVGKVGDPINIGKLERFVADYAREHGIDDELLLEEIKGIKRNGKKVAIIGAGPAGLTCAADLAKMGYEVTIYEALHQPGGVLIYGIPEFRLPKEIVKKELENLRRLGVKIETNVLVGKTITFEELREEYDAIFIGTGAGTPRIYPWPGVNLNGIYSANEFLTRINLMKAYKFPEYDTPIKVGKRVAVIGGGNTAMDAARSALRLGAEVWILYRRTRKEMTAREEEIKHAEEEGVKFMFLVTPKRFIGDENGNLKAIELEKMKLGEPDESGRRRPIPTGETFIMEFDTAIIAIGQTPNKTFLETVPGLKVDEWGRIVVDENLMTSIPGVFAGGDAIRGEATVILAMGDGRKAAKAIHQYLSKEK
# Assay Notes: intrinsic Trp/Tyr fluorescence quenching titration, Morrison fit
pKd: −log10 of the molar value.
Test Readout: pKd

Entry Smiles | Measured
NC(=O)C1=CN([C@@H]2O[C@H](COP(=O)(O)OP(=O)(O)OC[C@H]3O[C@@H](n4cnc5c(N)ncnc54)[C@H](OP(=O)(O)O)[C@@H]3O)[C@@H](O)[C@H]2O)C=CC1 | 5.52
NC(=O)c1ccc[n+]([C@@H]2O[C@H](COP(=O)(O)OP(=O)(O)OC[C@H]3O[C@@H](n4cnc5c(N)ncnc54)[C@H](OP(=O)(O)O)[C@@H]3O)[C@@H](O)[C@H]2O)c1 | 5.52
